# target-desc: Mu-type opioid receptor (Homo sapiens)
# Sequence (P35372 whole entry): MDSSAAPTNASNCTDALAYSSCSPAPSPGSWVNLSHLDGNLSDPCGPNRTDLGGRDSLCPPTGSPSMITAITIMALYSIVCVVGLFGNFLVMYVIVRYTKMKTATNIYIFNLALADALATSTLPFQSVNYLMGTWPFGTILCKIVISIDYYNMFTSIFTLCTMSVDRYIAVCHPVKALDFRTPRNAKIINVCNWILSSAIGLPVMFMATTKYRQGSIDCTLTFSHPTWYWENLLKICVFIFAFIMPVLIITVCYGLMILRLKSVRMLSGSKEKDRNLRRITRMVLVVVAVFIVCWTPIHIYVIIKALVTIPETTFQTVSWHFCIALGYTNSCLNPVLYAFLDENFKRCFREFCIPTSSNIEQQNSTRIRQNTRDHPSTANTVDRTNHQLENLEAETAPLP
# protocol: Displacement of [125I]IOXY from human recombinant mu opioid receptor expressed in CHO cells
# Format: cell-based
measured-metric: pKi
Remember, pKi is on a log scale: it is -log10 of the molar concentration.

Challenge: Please give measured pKi of the following entry: Oc1cccc([C@@]23CCC[C@@H](C2)N(C[C@H]2C[C@H]2c2ccccc2)CC3)c1
Response given: 6.34

Challenge: Please give measured pKi of the following entry: Oc1cccc([C@]23CCC[C@H](C2)N(C[C@@H]2C[C@H]2c2ccccc2)CC3)c1
Response given: 7.33

Challenge: Please give measured pKi of the following entry: Oc1cccc([C@@]23CCC[C@@H](C2)N(C[C@@H]2C[C@H]2c2ccccc2)CC3)c1
Response given: 8.40

Challenge: Please give measured pKi of the following entry: Oc1cccc(C23CCCC(C2)N(C/C=C/c2ccccc2)CC3)c1 (single isomer, unassigned; (-))
Response given: 8.22

Challenge: Please give measured pKi of the following entry: Oc1cccc([C@]23CCC[C@H](C2)N(C[C@H]2C[C@@H]2c2ccccc2)CC3)c1
Response given: 7.80
